Each recorded value in this set is attributed to ChEMBL document CHEMBL5331122.

system: Erythrocyte; assay: Hemolytic activity in mouse red blood cell assessed as hemolysis incubated for 1 hr; type: toxicity, cell-based; settings: dose 4-256 µg/ml
# maps each entry to its HC10
// note: answer is a bare numeric in µg/mL

Examples with their reported HC10 follow.
- CC[C@H](C)[C@H](NC(=O)[C@@H](N)CCN)C(=O)N[C@@H](CCN)C(=O)N[C@H](Cc1ccccc1)C(=O)N[C@@H](CC(C)C)C(=O)N[C@@H](CCN)C(=O)N[C@@H](C(=O)N[C@@H](CC(C)C)C(=O)N[C@H](C(N)=O)[C@@H](C)O)C(C)C: 512
- CCCCCC(=O)N[C@@H](CCN)C(=O)N[C@H](C(=O)N[C@@H](CCN)C(=O)N[C@H](Cc1ccccc1)C(=O)N[C@@H](CC(C)C)C(=O)N[C@H]1CCNC(=O)[C@H]([C@@H](C)O)NC(=O)[C@H](CC(C)C)NC(=O)[C@@H](C(C)C)NC1=O)[C@@H](C)CC: 512
- CCCCCC(=O)N[C@@H](CCN)C(=O)N[C@H](C(=O)N[C@@H](CCN)C(=O)N[C@H](Cc1ccccc1)C(=O)N[C@@H](CC(C)C)C(=O)N[C@@H](CCN)C(=O)N[C@@H](C(=O)N[C@@H](CC(C)C)C(=O)N[C@@H](Cc1ccc(O)cc1)C(N)=O)C(C)C)[C@@H](C)CC: 512

Query: Any idea what HC10 was measured for CCCCCCCCCC(=O)N[C@@H](CCN)C(=O)N[C@H](C(=O)N[C@@H](CCN)C(=O)N[C@H](Cc1ccccc1)C(=O)N[C@@H](CC(C)C)C(=O)N[C@@H](CCN)C(=O)N[C@@H](C(=O)N[C@@H](CC(C)C)C(=O)N[C@H](C(N)=O)[C@@H](C)O)C(C)C)[C@@H](C)CC ?
Response: 32

Query: HC10 for CCCCCCCCCCCCC(=O)N[C@@H](CCN)C(=O)N[C@H](C(=O)N[C@@H](CCN)C(=O)N[C@H](Cc1ccccc1)C(=O)N[C@@H](CC(C)C)C(=O)N[C@@H](CCN)C(=O)N[C@@H](C(=O)N[C@@H](CC(C)C)C(=O)N[C@H](C(N)=O)[C@@H](C)O)C(C)C)[C@@H](C)CC ?
Response: 8

Query: Which HC10 is reported for this compound? CC[C@H](C)[C@@H]1NC(=O)[C@H](CCN)NC(=O)[C@H](CC(C)C)NC(=O)[C@H]([C@@H](C)O)NC(=O)[C@H](CC(C)C)NC(=O)[C@@H](C(C)C)NC(=O)[C@H](CCN)NC(=O)[C@H](CC(C)C)NC(=O)[C@@H](Cc2ccccc2)NC(=O)[C@H](CCN)NC1=O
Response: 512

---

system: Enterococcus faecalis; test: Antibacterial activity against Enterococcus faecalis ATCC 29212 assessed as bacterial growth inhibition incubated for 18 hrs by broth microdilution method; assay type: functional
property-name: MIC (µg/mL)
Give the number; µg/mL is assumed, so skip it.

* CCCCCCCCC(=O)N[C@@H](CCN)C(=O)N[C@H](C(=O)N[C@@H](CCN)C(=O)N[C@H](Cc1ccccc1)C(=O)N[C@@H](CC(C)C)C(=O)N[C@@H](CCN)C(=O)N[C@@H](C(=O)N[C@@H](CC(C)C)C(=O)N[C@H](C(N)=O)[C@@H](C)O)C(C)C)[C@@H](C)CC | 8
* CCCCCC(=O)N[C@@H](CCN)C(=O)N[C@H](C(=O)N[C@@H](CCN)C(=O)N[C@H](Cc1ccccc1)C(=O)N[C@@H](CC(C)C)C(=O)N[C@@H](CCN)C(=O)N[C@@H](C(=O)N[C@@H](CC(C)C)C(=O)N[C@H](C(N)=O)[C@@H](C)CC)C(C)C)[C@@H](C)CC | 128

Attention now turns to another entry.
Query: MIC of CCCCCCC(=O)N[C@@H](CCN)C(=O)N[C@H](C(=O)N[C@@H](CCN)C(=O)N[C@H](Cc1ccccc1)C(=O)N[C@@H](CC(C)C)C(=O)N[C@@H](CCN)C(=O)N[C@@H](C(=O)N[C@@H](CC(C)C)C(=O)N[C@H](C(N)=O)[C@@H](C)O)C(C)C)[C@@H](C)CC on Enterococcus faecalis?
Response: 64

---

Here the recorded HC10 is given for each entry.
tested on: Erythrocyte; experiment: Hemolytic activity in mouse red blood cell assessed as hemolysis incubated for 1 hr; type: toxicity, cell-based; conditions: dose 4-256 µg/ml
Where a SMILES comes first, the peptide text is derived from it. [ ]: non-standard residue; d: D form. The star is where a group is joined. Dab = NCC[C@H](N)C(=O)O; Hexanoyl = CCCCCC(=O)*
Note: unit µg/mL is implicit; provide only the numeric part.

Worked cases, answers included:
• CCCCCC(=O)N[C@@H](CCN)C(=O)N[C@H](C(=O)N[C@H]1CCNC(=O)[C@H]([C@@H](C)O)NC(=O)[C@H](CC(C)C)NC(=O)[C@@H](C(C)C)NC(=O)[C@H](CCN)NC(=O)[C@H](CC(C)C)NC(=O)[C@@H](Cc2ccccc2)NC1=O)[C@@H](C)CC = 512
• CCCCCC(=O)N[C@@H](CCN)C(=O)N[C@H](C(=O)N[C@@H](CCN)C(=O)N[C@H](Cc1ccccc1)C(=O)N[C@@H](CC(C)C)C(=O)N[C@@H](CCN)C(=O)N[C@@H](C(=O)N[C@@H](CC(C)C)C(=O)N[C@@H](C)C(N)=O)C(C)C)[C@@H](C)CC = 512
• CCCCCC(=O)N[C@@H](CCN)C(=O)N[C@H](C(=O)N[C@@H](CCN)C(=O)N[C@H](Cc1ccccc1)C(=O)N[C@@H](CC(C)C)C(=O)N[C@@H](CCN)C(=O)N[C@@H](C(=O)N[C@@H](CC(C)C)C(=O)N[C@@H](CO)C(N)=O)C(C)C)[C@@H](C)CC (Hexanoyl-[Dab]I[Dab][dF]L[Dab][dV]LS-NH2) = 512

# next compound below
Query: Need HC10, item CCCCCCCC(=O)N[C@@H](CCN)C(=O)N[C@H](C(=O)N[C@@H](CCN)C(=O)N[C@H](Cc1ccccc1)C(=O)N[C@@H](CC(C)C)C(=O)N[C@@H](CCN)C(=O)N[C@@H](C(=O)N[C@@H](CC(C)C)C(=O)N[C@H](C(N)=O)[C@@H](C)O)C(C)C)[C@@H](C)CC
Response: 128

---

Below, each of the compounds is paired with its reported MIC value.
system: Bacillus subtilis; experiment: Antibacterial activity against Bacillus subtilis ATCC 23857 assessed as bacterial growth inhibition incubated for 18 hrs by broth microdilution method; format: functional
Hi! Could you send only the number? It should be in µg/mL, unit omitted.

* CCCCCC(=O)N[C@H]1CCNC(=O)[C@H]([C@@H](C)O)NC(=O)[C@H](CC(C)C)NC(=O)[C@@H](C(C)C)NC(=O)[C@H](CCN)NC(=O)[C@H](CC(C)C)NC(=O)[C@@H](Cc2ccccc2)NC(=O)[C@H](CCN)NC(=O)[C@H]([C@@H](C)CC)NC1=O | 128
* CCCCCC(=O)N[C@@H](CCN)C(=O)N[C@H](C(=O)N[C@@H](CCN)C(=O)N[C@H](Cc1ccccc1)C(=O)N[C@@H](CC(C)C)C(=O)N[C@@H](CCN)C(=O)N[C@@H](C(=O)N[C@@H](CC(C)C)C(=O)N[C@H](C(N)=O)[C@@H](C)O)C(C)C)[C@@H](C)CC | 4
* CCCCCCCCCCCC(=O)N[C@@H](CCN)C(=O)N[C@H](C(=O)N[C@@H](CCN)C(=O)N[C@H](Cc1ccccc1)C(=O)N[C@@H](CC(C)C)C(=O)N[C@@H](CCN)C(=O)N[C@@H](C(=O)N[C@@H](CC(C)C)C(=O)N[C@H](C(N)=O)[C@@H](C)O)C(C)C)[C@@H](C)CC | 8
* CCCCCC(=O)N[C@@H](CCN)C(=O)N[C@H](C(=O)N[C@@H](CCN)C(=O)N[C@H](Cc1ccccc1)C(=O)N[C@@H](CC(C)C)C(=O)N[C@@H](CCN)C(=O)N[C@@H](C(=O)N[C@@H](CC(C)C)C(=O)N[C@@H](CCCCN)C(N)=O)C(C)C)[C@@H](C)CC | 8
* CCCCCCCCCCCCCC(=O)N[C@@H](CCN)C(=O)N[C@H](C(=O)N[C@@H](CCN)C(=O)N[C@H](Cc1ccccc1)C(=O)N[C@@H](CC(C)C)C(=O)N[C@@H](CCN)C(=O)N[C@@H](C(=O)N[C@@H](CC(C)C)C(=O)N[C@H](C(N)=O)[C@@H](C)O)C(C)C)[C@@H](C)CC | 16

Query compound follows.
Query: What does the record list as MIC for CCC[C@H](O)CC(=O)N[C@@H](CCN)C(=O)N[C@H](C(=O)N[C@@H](CCN)C(=O)N[C@H](Cc1ccccc1)C(=O)N[C@@H](CC(C)C)C(=O)N[C@@H](CCN)C(=O)N[C@@H](C(=O)N[C@@H](CC(C)C)C(=O)N[C@H](C(N)=O)[C@@H](C)O)C(C)C)[C@@H](C)CC ?
Response: 8
